ASSAY: solvent given as SMILES
COND: in CCCCO
Please respond with 1.0 when measured absorption maximum is strictly beneath 400 nm, and with 0.0 in all other cases.

{"MOLECULE": "CN(C)c1ccc(/C=C/C=C/c2nc3ccccc3o2)cc1", "GROUP": 0.0}
{"MOLECULE": "CN(C)c1ccc(/C=C/c2cc[n+](CCCOCC(COCCC[n+]3ccc(/C=C/c4ccc(N(C)C)cc4)cc3)(COCCC[n+]3ccc(/C=C/c4ccc(N(C)C)cc4)cc3)COCCC[n+]3ccc(/C=C/c4ccc(N(C)C)cc4)cc3)cc2)cc1", "GROUP": 0.0}
{"MOLECULE": "CCCCCCC(CCCCCC)N1C(=O)c2cccc3c(-c4ccc(-c5ccc(OC)cc5)cc4)ccc(c23)C1=O", "GROUP": 1.0}
{"MOLECULE": "CCN(CC)c1ccc2cc(-c3ccc(S(C)(=O)=O)cc3)oc(=O)c2c1", "GROUP": 1.0}
{"MOLECULE": "O=c1cc(COc2ccc(I)cc2)c2c(ccc3ccccc32)o1", "GROUP": 1.0}
{"MOLECULE": "COCCOCCOCCOc1ccc(OCCOCCOCCOC)c(C=O)c1", "GROUP": 1.0}
{"MOLECULE": "CN(C)c1ccc(/C=C/C=N/N=C/c2ccc3ccc4cccc5ccc2c3c45)cc1", "GROUP": 0.0}
{"MOLECULE": "CN(C)c1ccc(/C=C/C=C2\\CCCC2=O)cc1", "GROUP": 0.0}
{"MOLECULE": "COc1cc(OC)cc(-c2ccc(-c3ccc(C#N)s3)s2)c1", "GROUP": 1.0}
{"MOLECULE": "CCCCCCC(CCCCCC)N1C(=O)c2cccc3c(-c4ccc([Si](C)(C)C)cc4)ccc(c23)C1=O", "GROUP": 1.0}
{"MOLECULE": "CCCCC[n+]1ccc(/C=C/c2ccc(N(C)C)c3ccccc23)c2ccccc21", "GROUP": 0.0}
{"MOLECULE": "COc1ccc2cc([C@H](C)C(=O)O)ccc2c1", "GROUP": 1.0}
{"MOLECULE": "Oc1cccc(/N=C/c2ccccc2Oc2ccccc2)c1", "GROUP": 1.0}
{"MOLECULE": "CN(C)c1ccc(/C=C2/N=C(c3ccccc3)OC2=O)cc1", "GROUP": 0.0}
{"MOLECULE": "CCCN1C(=O)C(=CC=CC=C2Oc3ccccc3N2CCCS(=O)(=O)[O-])C(=O)N(CCC)C1=S", "GROUP": 0.0}
{"MOLECULE": "COC(=O)C(Cc1ccc2oc(-c3ccc4c(c3)c3ccccc3n4-c3ccccc3)nc2c1)NC(=O)OC(C)(C)C (stereo not given)", "GROUP": 1.0}
{"MOLECULE": "CN(C)c1ccc(/C=C/C(=O)O)cc1", "GROUP": 1.0}
{"MOLECULE": "COC(=O)C(Cc1ccc2oc(-c3ccc(N(c4ccccc4)c4ccccc4)cc3)nc2c1)NC(=O)OC(C)(C)C (stereo not given)", "GROUP": 1.0}

====

ASSAY: solvent given as SMILES
COND: in CN(C)C=O
MEASURE: absorption maximum

{"MOLECULE": "CC1=CC(C)=[N+]2C1=C(c1c3ccccc3c(C)c3ccccc13)c1c(C)cc(C)n1[B-]2(F)F", "ASSAY RESULT": "506 nm"}
{"MOLECULE": "COc1ccc2c(c1)[nH]c1c3[nH]c4cc(OC)ccc4c3c3nsnc3c21", "ASSAY RESULT": "436 nm"}
{"MOLECULE": "F[B-]1(F)n2cccc2C(c2c3ccccc3c(-c3ccccc3)c3ccccc23)=C2C=CC=[N+]21", "ASSAY RESULT": "506 nm"}
{"MOLECULE": "COC1=C/C(=C\\C=C2C=CN(Cc3ccc(Br)cc3)C=C2)C=CC1=O", "ASSAY RESULT": "621 nm"}
{"MOLECULE": "CC(C)(C)c1ccc2c(c1)c1cc(C(C)(C)C)ccc1n2-c1ccc(-c2nc(-c3ccc(-n4c5ccc(C(C)(C)C)cc5c5cc(C(C)(C)C)ccc54)cc3)nc(-c3ccc(P(=O)(c4ccccc4)c4ccccc4)cc3)n2)cc1", "ASSAY RESULT": "384.45 nm"}
{"MOLECULE": "CC(C)(C)c1cc(C(C)(C)C)c2oc3c(c2c1)C=CN1C(=O)C2=C4c5oc6c(C(C)(C)C)cc(C(C)(C)C)cc6c5C=CN4C(=O)C2=C31", "ASSAY RESULT": "645 nm"}
{"MOLECULE": "CN(C)c1ccc(C2=Cc3cccc[n+]3[B-](F)(F)O2)cc1", "ASSAY RESULT": "423 nm"}
{"MOLECULE": "CCn1c2ccccc2c2cc(C#Cc3cc(C#Cc4ccc5c(c4)c4ccccc4n5CC)nc(SC)n3)ccc21", "ASSAY RESULT": "399 nm"}
{"MOLECULE": "O=S(=O)(c1ccc(-c2ccc(-c3nc4c5ccccc5c5ccccc5c4n3-c3ccccc3)cc2)cc1)c1ccc(-c2ccc(-c3nc4c5ccccc5c5ccccc5c4n3-c3ccccc3)cc2)cc1", "ASSAY RESULT": "368 nm"}
{"MOLECULE": "COCCOCCOCCOc1ccc(OCCOCCOCCOC)c(C=O)c1", "ASSAY RESULT": "349 nm"}
{"MOLECULE": "CN(C)c1ccc2nc(/C=C/c3cc4c5c(c3)CCCN5CCC4)c(=O)oc2c1", "ASSAY RESULT": "516 nm"}
{"MOLECULE": "O=P1(c2ccccc2)C(c2ccc(N(c3ccccc3)c3ccccc3)cc2)=Cc2cc3ccccc3cc21 (configuration not stated)", "ASSAY RESULT": "407 nm"}
{"MOLECULE": "N#CC(C#N)=C(/C=C/c1cc2c3c(c1)CCCN3CCC2)c1ccc2c3c(cccc13)CC2", "ASSAY RESULT": "550 nm"}
{"MOLECULE": "FC(F)(F)c1ccc(/C=C/c2ccc(-c3nnc(-c4ccc(-c5cc6ccccc6s5)cc4)o3)cc2)cc1", "ASSAY RESULT": "345 nm"}
{"MOLECULE": "COc1cc(OC)cc(-c2ccc(-c3ccc(C#N)s3)s2)c1", "ASSAY RESULT": "370 nm"}
{"MOLECULE": "CC(=O)c1ccc(/N=N/c2ccc(Nc3ccccc3)cc2)cc1", "ASSAY RESULT": "452 nm"}
{"MOLECULE": "CN(C)c1ccc(/C=C/C(=O)c2ccc(Cl)cc2)cc1", "ASSAY RESULT": "427 nm"}

Where do these numbers come from? They come from the Deep4Chem optical property database.
